Recorded values, source patent US20240301031A1.

Target: T1, human APRIL (5860-AP-010/CF, R&D Systems) (human, UniProt O75888 115-250, limits assumed)
T1 construct: Bought protein
T1 sequence (looked up): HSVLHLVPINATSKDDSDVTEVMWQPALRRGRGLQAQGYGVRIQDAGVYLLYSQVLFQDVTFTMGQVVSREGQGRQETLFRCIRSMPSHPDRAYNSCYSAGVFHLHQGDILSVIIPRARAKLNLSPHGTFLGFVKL
Experiment: SPR (Biacore), sample captured on Protein A, antigen flowed, 1:1 fit
Reported koff by item:
Unit s⁻¹ implied. Number only.

Reference set, count: 3
binder="TACI-9 Fc (Fc fusion, TACI positions 68-108, no mutation, fused directly to Fc; two identical polypeptides) SLSCRKEQGKFYDHLLRDCISCASICGQHPKQCAYFCENKLDKTHTCPPCPAPEAEGAPSVFLFPPKPKDTLMISRTPEVTCVVVDVSHEDPEVKFNWYVDGVEVHNAKTKPREEQYNSTYRVVSVLTVLHQDWLNGKEYKCKVSNKALPSSIEKTISKAKGQPREPQVYTLPPSRDELTKNQVSLTCLVKGFYPSDIAVEWESNGQPENNYKTTPPVLDSDGSFFLYSKLTVDKSRWQQGNVFSCSVMHEALHNHYTQKSLSLSPGK" measurement_name=koff meas_value=0.000207
binder="RCT-18 (Telitacicept) (Fc fusion, Positive control; TACI part is positions 13-118 of the extracellular region of human TACI, the rest is Fc) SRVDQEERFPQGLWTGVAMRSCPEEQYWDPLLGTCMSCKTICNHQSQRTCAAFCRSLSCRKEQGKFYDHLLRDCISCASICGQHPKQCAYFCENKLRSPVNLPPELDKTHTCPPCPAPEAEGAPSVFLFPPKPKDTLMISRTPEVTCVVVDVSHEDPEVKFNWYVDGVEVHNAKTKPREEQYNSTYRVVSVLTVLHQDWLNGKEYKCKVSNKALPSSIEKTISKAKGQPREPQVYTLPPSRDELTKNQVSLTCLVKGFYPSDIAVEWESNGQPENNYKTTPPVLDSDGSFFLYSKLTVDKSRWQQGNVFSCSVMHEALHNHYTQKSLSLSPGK" measurement_name=koff meas_value=0.000658
binder="TACI-9-15Fc (Fc fusion, two identical polypeptides) STSCREEQGEFYDHLLRDCISCASICGQHPKQCAAFCENKLDKTHTCPPCPAPEAEGAPSVFLFPPKPKDTLMISRTPEVTCVVVDVSHEDPEVKFNWYVDGVEVHNAKTKPREEQYNSTYRVVSVLTVLHQDWLNGKEYKCKVSNKALPSSIEKTISKAKGQPREPQVYTLPPSRDELTKNQVSLTCLVKGFYPSDIAVEWESNGQPENNYKTTPPVLDSDGSFFLYSKLTVDKSRWQQGNVFSCSVMHEALHNHYTQKSLSLSPGK" measurement_name=koff meas_value=9.6e-05

Requested read-out: koff. Entry: TACI-9-10Fc (Fc fusion, TACI-9 with K6E and K10E, fused to Fc; two identical polypeptides) SLSCREEQGEFYDHLLRDCISCASICGQHPKQCAYFCENKLDKTHTCPPCPAPEAEGAPSVFLFPPKPKDTLMISRTPEVTCVVVDVSHEDPEVKFNWYVDGVEVHNAKTKPREEQYNSTYRVVSVLTVLHQDWLNGKEYKCKVSNKALPSSIEKTISKAKGQPREPQVYTLPPSRDELTKNQVSLTCLVKGFYPSDIAVEWESNGQPENNYKTTPPVLDSDGSFFLYSKLTVDKSRWQQGNVFSCSVMHEALHNHYTQKSLSLSPGK
0.000112
